- assay_target: EGFR (Homo sapiens)
- Sequence (P00533 25-1210): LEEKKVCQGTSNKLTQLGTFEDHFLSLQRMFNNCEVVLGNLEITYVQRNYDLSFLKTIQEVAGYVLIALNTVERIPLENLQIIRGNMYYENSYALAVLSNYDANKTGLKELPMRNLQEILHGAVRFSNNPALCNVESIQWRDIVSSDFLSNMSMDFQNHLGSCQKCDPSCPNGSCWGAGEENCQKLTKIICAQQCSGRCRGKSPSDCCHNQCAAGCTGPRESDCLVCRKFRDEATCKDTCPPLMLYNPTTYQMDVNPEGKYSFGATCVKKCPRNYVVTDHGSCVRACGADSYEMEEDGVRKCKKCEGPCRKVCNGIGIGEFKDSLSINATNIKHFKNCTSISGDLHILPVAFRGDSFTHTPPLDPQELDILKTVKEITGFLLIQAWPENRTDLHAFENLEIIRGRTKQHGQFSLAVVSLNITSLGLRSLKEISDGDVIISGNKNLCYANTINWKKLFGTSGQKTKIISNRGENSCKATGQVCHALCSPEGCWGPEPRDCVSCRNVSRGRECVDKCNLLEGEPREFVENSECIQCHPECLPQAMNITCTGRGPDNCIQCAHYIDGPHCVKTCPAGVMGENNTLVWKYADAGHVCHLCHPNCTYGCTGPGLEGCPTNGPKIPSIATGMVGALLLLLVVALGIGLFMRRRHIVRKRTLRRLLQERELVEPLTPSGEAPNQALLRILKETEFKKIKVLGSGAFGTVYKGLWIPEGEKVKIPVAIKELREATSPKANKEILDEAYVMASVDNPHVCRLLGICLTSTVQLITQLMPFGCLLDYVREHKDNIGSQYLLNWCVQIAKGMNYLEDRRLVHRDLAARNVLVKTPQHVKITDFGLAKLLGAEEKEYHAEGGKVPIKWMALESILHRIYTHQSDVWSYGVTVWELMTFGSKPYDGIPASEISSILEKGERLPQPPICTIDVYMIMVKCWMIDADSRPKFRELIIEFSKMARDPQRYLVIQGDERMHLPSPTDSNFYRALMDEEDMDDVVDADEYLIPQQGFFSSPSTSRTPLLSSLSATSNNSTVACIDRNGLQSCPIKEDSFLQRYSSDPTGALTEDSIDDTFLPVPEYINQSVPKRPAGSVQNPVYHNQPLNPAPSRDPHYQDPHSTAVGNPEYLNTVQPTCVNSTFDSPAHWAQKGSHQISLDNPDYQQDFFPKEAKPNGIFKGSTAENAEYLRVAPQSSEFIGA
- measurement_protocol: Inhibition of a panel of kinases, in vitro HotSpot kinase assay: EGFR
- Type: biochemical
- condition_parameters: D-compounds panel data; 1 μM ATP
pIC50: −log10 of the molar value.
pIC50 values by entry

C[C@@H]1CC[C@H](NC(=O)c2ccc(C3CC3)cc2)CN1c1cnc(C(N)=O)c(Nc2ccc(N3CCN(C)CC3)cc2)n1    6.00 to 7.00
C[C@@H]1[C@H](NC(=O)c2cnc(C3CC3)nc2)CCCN1c1cnc(C(N)=O)c(Nc2cnn(C)c2)n1    5.00 to 6.00
CN1CCN(Cc2ccc(Nc3nc(N4CCC[C@@H](n5ccc6cc(C7CC7)ccc6c5=O)C4)cnc3C(N)=O)cc2)CC1    5.00 to 6.00
C[C@@H]1[C@H](NC(=O)c2ccc(C3CC3)cc2)CCCN1c1cnc(C(N)=O)c(Nc2cnn(CC(C)(C)O)c2)n1    < 5.00
C[C@@H]1[C@H](NC(=O)c2ccc(C3CC3)cc2)CCCN1c1cnc(C(N)=O)c(Nc2cnn(C)c2F)n1    5.00 to 6.00

# context switch: different molecule, same pIC50
According to the records, this molecule C[C@@H]1[C@H](NC(=O)c2ccc(C(C)(C)C#N)cc2)CCCN1c1cnc(C(N)=O)c(Nc2ccc(OC3CCN(C)CC3)cc2)n1 displays pIC50 of 6.00 to 7.00

====

pIC50 values by entry
- assay_target: BTK-WT (Homo sapiens, UniProt Q06187)
- Construct: purified from insect cells as a full-length construct containing an N-terminal 6X-His tag; His6 (N); made in house; host or cells: insect cells (baculovirus Sf21 in Method B)
- Sequence (Q06187 whole entry): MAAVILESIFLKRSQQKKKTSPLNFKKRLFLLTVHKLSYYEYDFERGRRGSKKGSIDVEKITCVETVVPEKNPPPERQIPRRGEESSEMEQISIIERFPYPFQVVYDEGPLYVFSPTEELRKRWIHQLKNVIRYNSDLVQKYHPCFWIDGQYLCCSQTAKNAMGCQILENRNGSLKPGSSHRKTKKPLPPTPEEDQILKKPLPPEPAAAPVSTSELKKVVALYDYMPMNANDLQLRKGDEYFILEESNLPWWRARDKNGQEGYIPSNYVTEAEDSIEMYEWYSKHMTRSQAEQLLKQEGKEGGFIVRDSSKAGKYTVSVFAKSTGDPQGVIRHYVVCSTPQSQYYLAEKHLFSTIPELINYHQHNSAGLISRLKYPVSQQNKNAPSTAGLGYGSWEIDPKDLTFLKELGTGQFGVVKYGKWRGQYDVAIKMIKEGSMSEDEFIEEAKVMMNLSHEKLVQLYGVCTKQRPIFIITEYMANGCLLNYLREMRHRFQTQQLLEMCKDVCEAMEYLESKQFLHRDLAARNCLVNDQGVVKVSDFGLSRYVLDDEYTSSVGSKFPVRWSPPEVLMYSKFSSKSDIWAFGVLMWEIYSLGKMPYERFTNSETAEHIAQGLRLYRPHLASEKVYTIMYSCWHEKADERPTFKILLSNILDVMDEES
- measurement_protocol: Btk in vitro inhibitory activity (one of Method A TR-FRET, Method B electrophoretic mobility shift, Method C radiometric filter binding)
- Type: biochemical
- condition_parameters: Table 12, Formula C-I; read-out: BTK-WT (IC50)
pIC50: −log10 of the molar value.

For orientation, consider the following solved cases.
Cc1cc(Nc2nc(N[C@H]3CCCN(C(=O)c4ccc(N(C)C)cc4)C3)cnc2C(N)=O)sn1    ≥ 7.00
Cc1cc(Nc2nc(N[C@H]3CCCN(C(=O)c4ccccc4)C3)cnc2C(N)=O)sn1    5.00 to 6.00
Cc1cc(Nc2nc(N(C)CC3CCN(C(=O)N(C)C)CC3)cnc2C(N)=O)sn1    6.00 to 7.00
C=CC(=O)N1CCC[C@H](N(C)c2cnc(C(N)=O)c(Nc3ccc(C(C)C)cc3)n2)C1    ≥ 7.00
Cc1cc(Nc2nc(N[C@H]3CCN(C(=O)N(C)C)C3)cnc2C(N)=O)sn1    ≥ 7.00

According to the records, this molecule C=CC(=O)N1CCC[C@@H](Nc2nnc(C(N)=O)c(Nc3ccc(C(C)C)cc3)n2)[C@H]1C displays pIC50 of ≥ 7.00

According to the records, this molecule CC(C)c1ccc(Nc2nc(N[C@H]3CCCN(C(=O)CN)C3)nnc2C(N)=O)cc1 displays pIC50 of 6.00 to 7.00

According to the records, this molecule Cc1cc(Nc2nc(N[C@@H]3CCN(C(=O)N(C)C)C3)cnc2C(N)=O)sn1 displays pIC50 of 6.00 to 7.00

====

pIC50 values by entry
- assay_target: LCK (Homo sapiens)
- Sequence (P06239 whole entry): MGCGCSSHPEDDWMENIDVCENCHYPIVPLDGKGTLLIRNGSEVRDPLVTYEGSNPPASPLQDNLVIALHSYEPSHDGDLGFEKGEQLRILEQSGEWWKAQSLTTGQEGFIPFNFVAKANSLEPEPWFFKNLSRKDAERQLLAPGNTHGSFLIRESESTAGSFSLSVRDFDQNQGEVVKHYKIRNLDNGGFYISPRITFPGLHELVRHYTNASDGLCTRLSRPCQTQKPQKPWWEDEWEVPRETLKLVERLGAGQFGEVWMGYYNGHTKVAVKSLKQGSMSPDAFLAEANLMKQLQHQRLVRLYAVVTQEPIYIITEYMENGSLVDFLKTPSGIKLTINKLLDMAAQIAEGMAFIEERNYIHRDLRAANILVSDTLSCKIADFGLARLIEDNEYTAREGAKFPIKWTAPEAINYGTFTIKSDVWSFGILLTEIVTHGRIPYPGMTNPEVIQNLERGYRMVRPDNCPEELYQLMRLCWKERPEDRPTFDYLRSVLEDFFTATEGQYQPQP
- measurement_protocol: Inhibition of a panel of kinases, in vitro HotSpot kinase assay: LCK
- Assay type: biochemical
- condition_parameters: D-compounds panel data; 1 μM ATP; read-out: IC50 LCK
pIC50: −log10 of the molar value.

According to the records, this molecule Cc1csc(Nc2nc(N3CCC[C@@H](NC(=O)c4ccc(C5CC5)cc4F)[C@H]3C)cnc2C(N)=O)n1 displays pIC50 of < 5.00

According to the records, this molecule NC(=O)c1ncc(N2CCC[C@@H](NC(=O)c3ccc(C4CC4)cc3F)C2)nc1Nc1cc(-c2ccccc2)ns1 displays pIC50 of < 5.00
